Consider the following compounds and their measured growth inhibition readings.
- Assay remarks: NCI Yeast Anticancer Drug Screen. Data for the cln2 rad14 strain (AID 165);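 note: 0% = growth equal to vehicle treated cultures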
- Test conditions: S. cerevisiae cln2 rad14 strain, at 5.0 µM (retest, dose inferred, filed as 0.5), hits give high values
Compounds without any hit were thinned out: in the full panel of roughly 79,000, 15% have a hit.
Value type: growth inhibition (%)

compound=O=c1[nH]ncc(SCc2ccccc2)c1SCc1ccccc1 unit_descriptor=% quantitative_readout=8
compound=COc1ccccc1/C=C1\NC(=S)N(/C=C2\C(=O)Oc3ccccc3C2=O)C1=O unit_descriptor=% quantitative_readout=-9
compound=CC(=O)Nc1ccc(/C=c2\sc3nnc(-c4cccnc4)n3c2=O)cc1 unit_descriptor=% quantitative_readout=-5
compound=CN(c1ccccc1)c1c2c(oc(=O)c1Cl)-c1ccccc1SC2 unit_descriptor=% quantitative_readout=7
compound="COc1cc2c(cc1C(C)C)CCC1C(C)(C#N)CCCC21C (configuration not stated)" unit_descriptor=% quantitative_readout=1
compound=COc1cccc2c1[n+]([O-])c1cccc(O)c1[n+]2[O-] unit_descriptor=% quantitative_readout=93
compound="COc1ccc2c3c(ccc2c1)NC(C(=O)O)CC3 (configuration not stated)" unit_descriptor=% quantitative_readout=-17
compound=Cc1nnc2nc3c(nn12)c1ccccc1n3C unit_descriptor=% quantitative_readout=-60
compound=CCCCCC(C)(C)N=C=S unit_descriptor=% quantitative_readout=5
compound=Cc1ccc(S(=O)(=O)N/N=C(\C=C\c2ccccc2)c2ccccc2)cc1 unit_descriptor=% quantitative_readout=-19
compound="S=C(Nc1ccccc1)NC1CC2C=CC1CC2 (configuration not stated)" unit_descriptor=% quantitative_readout=-23
compound="CCOC(=O)C1(C#N)C(=O)CSC1=Nc1ccccc1Cl (configuration not stated)" unit_descriptor=% quantitative_readout=13
